From: patent US20260103474A1

# EXPERIMENTAL TARGET: Human brain derived TDP-43 aggregates (Homo sapiens, UniProt Q13148)
# Construct: Human FTD sarkosyl-insoluble brain extracts were spotted onto microarray slides
# Sequence (Q13148 261-414 limits assumed): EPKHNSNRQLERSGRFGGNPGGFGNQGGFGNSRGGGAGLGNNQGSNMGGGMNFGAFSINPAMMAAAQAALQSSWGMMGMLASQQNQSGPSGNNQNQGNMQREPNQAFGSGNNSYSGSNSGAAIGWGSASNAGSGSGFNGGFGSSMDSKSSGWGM
# PROCEDURE TEXT: Micro-radiobinding competition assay for binding affinity to TDP-43
# MEASUREMENT CONTEXT: non-radiolabeled compound at 250 nM vs tritiated reference ligand at 40 nM; FTD sarkosyl-insoluble brain extracts
Recorded Human brain derived TDP-43 aggregates Mean % competition at 250 nM for the following molecules
REPORTED PROPERTY: Human brain derived TDP-43 aggregates Mean % competition at 250 nM (%)

>>> observed_result("N#Cc1c(N)cccc1N1CCc2nc(-c3ccc(N4CC[C@@H](F)C4)nc3F)sc2C1=O")
60
>>> observed_result("Nc1cc(N2CCc3nc(-c4ccc(N5CCC[C@H](F)C5)nc4F)sc3C2=O)ccn1")
45
>>> observed_result("O=C1c2sc(-c3ccc(N4CCCC4)nc3F)nc2CCN1c1ccc(F)nc1")
56
>>> observed_result("O=C1c2sc(-c3ccc(N4CC[C@@H](F)C4)nc3F)nc2CCN1c1cscn1")
60
>>> observed_result("O=C1c2sc(-c3ccc(N4CCC[C@@H](F)C4)nc3F)nc2CCN1c1cnsc1")
61
>>> observed_result("O=C1c2sc(-c3ccc(N4CC[C@H](F)C4)nc3F)nc2CCN1c1cnsc1")
78
>>> observed_result("O=C1c2sc(-c3ccc(N4CCCC4)nc3F)nc2CCN1c1ccncc1")
48
>>> observed_result("O=C1c2sc(-c3ccc(N4CC[C@@H](F)C4)nc3F)nc2CCN1c1ncccn1")
62
>>> observed_result("O=C1c2sc(-c3ccc(N4CCC(CO)CC4)nc3F)nc2CCN1c1cccnc1")
73
>>> observed_result("O=C1c2sc(-c3ccc(N4CCC[C@H](F)C4)nc3F)nc2CCN1c1ncccn1")
55

###

# EXPERIMENTAL TARGET: Human brain derived TDP-43 aggregates (Homo sapiens, UniProt Q13148)
# Construct: Human FTD sarkosyl-insoluble brain extracts were spotted onto microarray slides
# PROCEDURE TEXT: Micro-radiobinding competition assay for binding affinity to TDP-43
# MEASUREMENT CONTEXT: non-radiolabeled compound at 250 nM vs tritiated reference ligand at 40 nM; FTD sarkosyl-insoluble brain extracts
REPORTED PROPERTY: Human brain derived TDP-43 aggregates Mean % competition at 250 nM (%)

>>> observed_result("N#Cc1c(N)cccc1N1CCc2nc(-c3ccc(N4CC[C@H](F)C4)nc3F)sc2C1=O")
65
>>> observed_result("N#Cc1c(N)cccc1N1CCc2nc(-c3ccc(N4CCC[C@H](F)C4)nc3F)sc2C1=O")
62
>>> observed_result("O=C1c2sc(-c3ccc(N4CC[C@@H](F)C4)nc3F)nc2CCN1c1cccnc1")
65

###

Recorded pKi for the following compounds
# EXPERIMENTAL TARGET: Human brain derived TDP-43 aggregates (Homo sapiens)
# Construct: Human FTD sarkosyl-insoluble brain extracts were spotted onto microarray slides
# PROCEDURE TEXT: Micro-radiobinding competition assay for binding affinity to TDP-43
# MEASUREMENT CONTEXT: 0.24 nM to 2 μM vs tritiated reference ligand at 40 nM
pKi: −log10 of the molar value.
REPORTED PROPERTY: pKi

>>> observed_result("O=C1c2sc(-c3ccc(N4CCC[C@@H](F)C4)nc3F)nc2CCN1c1cnsc1")
7.19
>>> observed_result("O=C1c2sc(-c3ccc(N4CC[C@H](F)C4)nc3F)nc2CCN1c1ccncn1")
7.60
>>> observed_result("O=C1c2sc(-c3ccc(N4CCCCC4)nc3F)nc2CCN1c1ccnc(F)c1")
7.60
>>> observed_result("O=C1c2sc(-c3ccc(N4CC[C@H](F)C4)nc3F)nc2CCN1c1ccnnc1")
8.15
>>> observed_result("O=C1c2sc(-c3ccc(N4CC[C@@H](F)C4)nc3F)nc2CCN1c1cscn1")
7.44
>>> observed_result("N#Cc1c(N)cccc1N1CCc2nc(-c3ccc(N4CCC[C@H](F)C4)nc3F)sc2C1=O")
8.40
>>> observed_result("Nc1cc(N2CCc3nc(-c4ccc(N5CCC[C@H](F)C5)nc4F)sc3C2=O)ccn1")
7.37
>>> observed_result("N#Cc1c(N)cccc1N1CCc2nc(-c3ccc(N4CCC[C@@H](F)C4)nc3F)sc2C1=O")
8.15
>>> observed_result("Cn1cc(N2CCc3nc(-c4ccc(N5CCCC5)nc4F)sc3C2=O)cn1")
7.52
>>> observed_result("O=C1c2sc(-c3ccc(N4CC[C@@H](F)C4)nc3F)nc2CCN1c1cccnc1")
7.66
